B1: glmS ribozyme (parent)
chain: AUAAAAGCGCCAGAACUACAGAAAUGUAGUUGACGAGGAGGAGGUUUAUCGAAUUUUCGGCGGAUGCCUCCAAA

- Variants of: B1
- protocol-details: self-cleavage kobs at 40 uM GlcN6P; higher = faster cleavage; RNA array
- condition-label: with glucosamine-6-phosphate
Fewer inactive variants are shown than the library holds.
self-cleavage kobs at 40 uM GlcN6P reference

Below, 3 variants whose answers are already recorded.
Sample AUAAAAGCGCCAGAACUACAGAAAUGUAGUUGUCGAGGACGAGGUUUAUCGAAUUUUCGGCGGAUGCCUCAAAA [A33U G40C C71A] — what was its self-cleavage kobs at 40 uM GlcN6P?
< 1e-05 s⁻¹

Please answer likewise for AUAAAAGCGCCAGAACUACAGAAAUGUAGUUGACGAGGAGGAGCUUUAUCUAAUUUUCGGCGGAUGCCUCCAAA [G44C G51U]
< 1e-05 s⁻¹

Let us now turn to AUAAAAGCGCCAGAACUACAGAAAUGUAGUUGAGGAGGAGGAGGUUUAUUGAAUUUUCGGCGGAUGCCUCCAAA [C34G C50U]
< 1e-05 s⁻¹

More entries:
Request the reported self-cleavage kobs at 40 uM GlcN6P associated with AUAAAAGCGCCAGAACUACAGAAAUGUAGUUGACGAGGAGGGGGUUUAGCGAAUUUUCGGCGGAUGCCUCCAAA [A42G U49G]
5.36e-05 s⁻¹

What about AUAAAAGCGCGAGGACUACAGAAAUGUAGUUGACGAGGAGGAGGUUUAUCGAAUUUUCGGCGGAUGCCUCCAAA [C11G A14G] ?
< 1e-05 s⁻¹

Can you handle AUAAAAGCGUCAGUAGUACAGAAAUGUAGUUGACGAGGAGGAGGUUUAUCGAAUUUUCGGCGGAUGCCUCCAAA [C10U A14U C16G] next?
< 1e-05 s⁻¹

What about this variant? AUAAAAGCGCCAGCACUACAGAAAUGUAGUUGACGAGGAGGAGGUUUAUCGAAUUUUCGGCGGGUGCCUCCAAA [A14C A64G]
0.000141 s⁻¹

Let us now turn to AUAAAAGCGCCAGAACUACAGAAAUGUAGCUGACGAGGAGGAAGUUUAUCGAAUUUUCGGCGGAUGCCUCCAAA [U30C G43A]
< 1e-05 s⁻¹

Entry to check: AUAAAAGCUCCAGAACUACAGAAAUGUAGUUGACGAGGAGGAGGGUUAUGGAAUUUUCGGCGGAUGCCUCCAAA [G9U U45G C50G]
< 1e-05 s⁻¹

Same question for AUAAAAGAGCCAGGACUACAGAAAUGUAGUUGACGAGGAGGAGGUUUAUCGAAUUUUCGGCGGAUGCCUCCAAA [C8A A14G] please.
< 1e-05 s⁻¹
